test: NCI Yeast Anticancer Drug Screen. Data for the cln2 rad14 strain (AID 165);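 also: 0% = growth equal to vehicle treated cultures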; settings: S. cerevisiae cln2 rad14 strain, at 5.0 µM (retest, dose inferred, filed as 0.5)
Compounds without any hit were thinned out: in the full panel of roughly 79,000, 15% have a hit. Active and inactive are the calls of the source. Rule as the data show it: active = growth inhibition above about 70%; inactive = the rest.
Permitted responses: active, inactive

Take a look at these entries with their results.
molecule | cat
C/C(=N/NC(=O)Nc1ccc(N=Nc2ccccc2)cc1)c1cccnc1 | inactive
c1ccc([P+](c2ccccc2)(c2ccccc2)C2c3ccccc3-c3ccccc32)cc1 | inactive
O=C(O)Cc1c[nH]c2ccccc12 | inactive
CCCCCCCOc1ccc(C=O)cc1OC | inactive
CC(Cl)C(=O)Nc1cc2ccccc2oc1=O (stereo not given) | inactive
O=[N+]([O-])c1ccc(/C=N\OCc2cscn2)cc1 | inactive
CCOC(=O)/C(C)=N/Nc1cc(Cl)ccc1O | inactive
CC(=O)c1cccc([N+](=O)[O-])c1 | inactive
CCOC(=O)C1=C(C)NC(C)=C(C(=O)OCC)C1c1ccnc2ccccc12 | inactive
CCOC(=O)c1ccc(C(C)C)cc1 | inactive

q: Query: recorded result category for COc1cccc2c1C(=O)c1c(O)c3c(c(O)c1C2=O)C[C@@](O)(/C(C)=N/NC(N)=S)C[C@@H]3OC1CC(N)C(O)C(C)O1 (stereo not given in full) in this test
a: inactive

q: Query: recorded result category for "O=C(Nc1ccc(Cl)cc1)NS(=O)(=O)c1c(-c2ccccc2)oc2ccccc2c1=O" in this test
a: inactive

q: Query: recorded result category for "SCCCCCCCCCCS" in this test
a: inactive

* * *

experiment: NCI Yeast Anticancer Drug Screen. Data for the mlh1 rad18 strain (AID 175); settings: S. cerevisiae mlh1 rad18 strain growth inhibition; at 50.0 µM; hits give high values
About 79,000 compounds went through this panel and 15% of them were active in at least one assay; those are over-represented in the sample as a whole.
measurement_type: growth inhibition (%)
Numbers only, in %.

# batch: return growth inhibition for each of the 6 compounds below
1. O=Cc1c(I)cc(I)c(O)c1I
2. CCN=C(N)Nc1nc(-c2ccc(Cl)cc2)cs1
3. CCc1cc(CC)c(-c2ccco2)c(COC(=O)NC)c1
4. Fc1ccc(CSC(=S)Nc2cccc(C(F)(F)F)c2)cc1
5. CCCCCCc1c(Cl)nc(Cl)nc1Cl
6. Oc1c(Br)cc(Br)cc1C=Nc1ccc(Br)cc1

a:
1: 97.3; 2: 96.8; 3: 96.3; 4: 99.5; 5: 87.2; 6: 87.1

* * *

experiment: NCI Yeast Anticancer Drug Screen. Data for the mec2-1 strain (AID 157); details: S. cerevisiae mec2-1 strain, at 50.0 µM (retest, dose inferred, filed as 5.0), hits give high values
Compounds without any hit were thinned out: in the full panel of roughly 79,000, 15% have a hit.
Exercise: for every item that follows, state its recorded growth inhibition.
Give bare numbers, in %.

Example cases with answers are listed next.
compound | observed_result
c1cc2ccc1C1NCCCN1CCN1CCCNC1c1ccc(cc1)C1NCCCN1CCN1CCCNC21 (stereo unspecified) | -2
CC(C)C(C)(C(=O)O)C(C)C | 2
N#CSc1ccc(O)c2ccccc12 | 87
O=C1/C(=C/c2ccccc2)CN(C(=O)C(F)(F)F)C/C1=C\c1ccccc1 | 80
CC(=O)OCc1ccc2c(c1)C(O)NC(=O)O2 (stereo unspecified) | 13
O=c1[nH]c(Cc2ccccc2)nc2c1sc1nc3ccccc3n12 | 56

# batch: return growth inhibition for each of the 6 compounds below
1. Cc1ccc(O)c(N=Nc2ccc(Cl)cc2)c1
2. CC12CCC(O)CC1CCC1C2CCC2(C)C(NC(=O)N(CCCl)N=O)CCC12 (stereo unspecified)
3. Cc1cc(Cl)c(O)c(C(=O)C(=O)C(O)c2ccc3c(c2)OCO3)c1 (stereo unspecified)
4. COC1OC(=O)CC1C1CC=C2C3CCC4CC(O)CCC4(C)C3CCC21C (stereo unspecified)
5. CC(C)NC(=O)OCc1c(CO)c2c(n1C)-c1ccccc1CC2
6. CC(C)SC(=S)Nc1ccc(Cl)cc1

a:
1: -2; 2: 78; 3: 99; 4: 85; 5: 96; 6: 98

# batch: return growth inhibition for each of the 4 compounds below
1. CC(=O)Oc1c2c(c(C)c3ccccc13)C(=O)c1cccnc1C2=O
2. Oc1cc2c(cc1C(c1ccc(Cl)cc1)N1CCOCC1)OCO2 (stereo unspecified)
3. CCOc1c(N=Nc2ccccc2Cl)c(-c2ccccc2)nn1C(=S)S
4. COCCNC(=O)C1C(=O)N(CCOC)C(=O)/C1=N/N (stereo unspecified)

a:
5
99
24
5
